Target: SARS-CoV-2 S蛋白 (Delta变异株, 假病毒) (SARS-CoV-2 Delta variant, UniProt P0DTC2 14-1273)
Test: cell-based or functional assay
Exercise: state measured 假病毒中和能力(IC50) for each of the binders provided.
Answers are plain numbers, in µg/mL.

Known 假病毒中和能力(IC50) results, listed for orientation:
binder	value_units	假病毒中和能力(IC50)
LHD7 (antibody, V domains shown) VH: QMQLVQSGPEVKKPGTSVKVSCKASGFTFITAAVQWVRQARGQRLEWIGWIAVGSGKTDYAQKFQERVTITRDISTSTAYMEVKSLRSEDTALYYCAAPQCNRTTCLDGFDIWGQGTKVIVSS VL: EIVLTQSPVTLSLSPGERATLSCRASQSVSRSYLGWYQQKPGQAPRLLIYGASSRATGIPDRFRGSGSGTDFTLTISRLEPEDFAVYYCQQYGTSPWTFGQGTKVEIKV	µg/mL	0.008
SWB8 (antibody, V domains shown) VH: EVQLVESGGGLVQPGGSLRLSCAASGFTIRSYEMNWVRQAPGKGLEWVSYISSSGTTIYYADSVKGRFTISRDTAKNSLYLQMNSLRAEDTAVYYCAREGDYPSAEYFHHWGQGTLVTVSS VL: DIVMTQSSVSLAVSLGERATINCKSSQSVLYSSTNRSYLAWYQQKPGQSPKLLIYWASTRESGVPDRFSGSGSGTDFTLTISSLQAEDVAVYYCQQYYSTRRTFGQGTKLEIKR	µg/mL	0.018
LHC11 (antibody, V domains shown) VH: EVQLVESGGGLIQPGGSLKLSCAATEIIVSRNYMTWVRQAPGKGLEWVSIIYPGGSSFYAESVKGRFTISRDEPKNTLFLQMNSLRVEDTAVYYCARGYGDYYFDFWGQGTLVTVSS VL: EIVLTQSPVTLSLSPGERATLSCRASQSVSSSYLAWYQQKPGQAPRLLIYGASSRATGIPDRFSGSGSGTDFTLTISRLEPEDFAVYYCQQWLTFGGGTKVEIKV	µg/mL	0.027

Shifting focus to the binder that follows.
Can you share its 假病毒中和能力(IC50)? I mean this binder: LHD2 (antibody, V domains shown) VH: QMQLVQSGPEVKKPGTSLKVSCKASGFAFTTSAVQWVRQARGQPLEWIGWIAVGSGKADYAQRFQERVTISRDMSTTTAYMELSSLSSEDTAVYFCAAPFCTRTTCLDGFDIWGQGTMVTVSS VL: EIVLTQSPVTLSLSPGERATLSCRAGQSVSRNYLGWYQQKPGQAPRLLIYAASSRATGIPDRFSGRGSGTDFTLTISRLEPEDFAVYYCQQYGTSPWTFGQGTKVEIKV
0.005
